Some sequences, each annotated with its measured PBM binding z-score.
Tested on: VDR homodimer (NR concentration 270 nM)
Assay: PBM binding z-score (relative to random genomic background probes); higher = stronger binding; sequences stand for … in GC…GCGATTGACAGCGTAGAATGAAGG
Write no unit; give the number alone.

These solved cases illustrate the format of a correct answer.
[[record]]
seq_text = "CCTACTGGGCCATTCAGTGGTCATTGATCATATG"
measured_value = -0.288

[[record]]
seq_text = "CCTAGCAGGCCAATCTGGGACACTCAAGGCTTGA"
measured_value = -0.728


Recorded result, "ACTCAAAGTTCACTAGGTAACGTAAGATTCAGCT" , PBM binding z-score: 4.45

Recorded result, "GCTGCTAGGTCAACTGATGGTCAGCTACAGCTCG" , PBM binding z-score: 0.228

====

System: PPARa:RXRa (NR concentration 270 nM, RXRa partner concentration 90 nM)
Assay: PBM binding z-score (relative to random genomic background probes); higher = stronger binding; sequences stand for … in GC…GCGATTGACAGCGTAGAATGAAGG
PARAMETER_MEASURED: PBM binding z-score
Write no unit; give the number alone.

These solved cases illustrate the format of a correct answer.
[[record]]
seq_text = "TAGCCTAGGTCAATGGGCCAGTATAGTACGCATC"
target_or_test_system = "PPARa:RXRa (NR concentration 270 nM, RXRa partner concentration 90 nM)"
parameter_measured = "PBM binding z-score"
measured_value = 3.27

[[record]]
seq_text = "CCTAGCAGGCCAATCTGAGTCACTCAAGGCTTGA"
target_or_test_system = "PPARa:RXRa (NR concentration 270 nM, RXRa partner concentration 90 nM)"
parameter_measured = "PBM binding z-score"
measured_value = -0.513

[[record]]
seq_text = "TGTGCTAGGTCAACGATGGTCAGCTAATCTGCTA"
target_or_test_system = "PPARa:RXRa (NR concentration 270 nM, RXRa partner concentration 90 nM)"
parameter_measured = "PBM binding z-score"
measured_value = 3.1

[[record]]
seq_text = "CGAACCAGGGCATGAGTTGATAGCAAATGCCGAT"
target_or_test_system = "PPARa:RXRa (NR concentration 270 nM, RXRa partner concentration 90 nM)"
parameter_measured = "PBM binding z-score"
measured_value = 0.552

[[record]]
seq_text = "CCGACTGGGGCATAAGGTAACCATAAGCCAGCCC"
target_or_test_system = "PPARa:RXRa (NR concentration 270 nM, RXRa partner concentration 90 nM)"
parameter_measured = "PBM binding z-score"
measured_value = 1.08


Recorded result, "CCGACTGGGGCAAAGGTTACCAAACTCAGTACGA" , PBM binding z-score: 5.64

Recorded result, "AGAATGAGGTTATACGTAGATCAGCGAAGAAAGT" , PBM binding z-score: 3.27

Recorded result, "CGAACTAGGTCATTGACAGGACAGTGTATAGTAA" , PBM binding z-score: 4.79

Recorded result, "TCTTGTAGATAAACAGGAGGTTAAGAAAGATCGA" , PBM binding z-score: 1.27

Recorded result, "AATACAGGTTCACTAGGCCAGAGTAGGTACGAAT" , PBM binding z-score: 3.19

Recorded result, "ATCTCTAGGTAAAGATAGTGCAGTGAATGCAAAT" , PBM binding z-score: 0.141

Recorded result, "CCAGACAGGTTAAAGGTAACTCAGTCTGGTACGC" , PBM binding z-score: 3.7
